Target: human α1A‐adrenoceptor (Homo sapiens)
Construct: expressed in transfected cells; host or cells: CHO-K1
Sequence (P35348 1-466): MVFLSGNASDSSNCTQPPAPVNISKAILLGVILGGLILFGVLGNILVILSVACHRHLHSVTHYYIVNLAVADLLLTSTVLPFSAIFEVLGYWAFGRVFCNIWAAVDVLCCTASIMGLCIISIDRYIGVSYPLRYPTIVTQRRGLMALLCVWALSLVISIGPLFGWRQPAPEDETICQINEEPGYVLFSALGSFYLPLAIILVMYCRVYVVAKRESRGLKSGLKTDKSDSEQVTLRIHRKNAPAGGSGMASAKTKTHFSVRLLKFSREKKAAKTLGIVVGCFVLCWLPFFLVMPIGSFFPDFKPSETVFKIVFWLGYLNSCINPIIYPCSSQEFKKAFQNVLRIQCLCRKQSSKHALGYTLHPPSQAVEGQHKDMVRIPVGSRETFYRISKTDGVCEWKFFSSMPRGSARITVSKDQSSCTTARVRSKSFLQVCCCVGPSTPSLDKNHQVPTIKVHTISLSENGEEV
Test: Intracellular free calcium mobilization, CHO‐α1A cells
Format: cell-based
Entries annotated with measured Intracellular calcium release % ionomycin
value_type: Intracellular calcium release % ionomycin (%)

molecule	unit_string	observed_result
Cc1cccc(C(C)c2cnc[nH]2)c1C (centres unmarked)	%	57.2
C=CCc1ccccc1OC(C)C1=NCCN1 (centres unmarked)	%	58.6
CCC1(c2cnc[nH]2)Cc2ccccc2C1	%	44.5
CNCC(O)c1ccc(O)cc1 (centres unmarked) [Synephrine]	%	55.4
C=CCN1CCc2nc(N)sc2CC1	%	39.7

FYI, the data here is from paper PMC8343220.
